// reported soluble fraction (log2) for each item listed
experiment: soluble fraction after stress (log2 fold change); higher = more stays soluble; pooled small domains, quantitative proteomics; conditions: stress: 50 degC

{"SEQUENCE_STRING": "HMSDYVLLYSGLNTSDTTFLAYSFQEKGIRYKMPNPDEIEVRVQDVDQARRIAAGAQLGGQVS", "soluble fraction (log2)": -0.424}

Enquiry: Hello, please tell me recorded soluble fraction (log2) for this one: HMVNGEFIDRIKVILQENNATRKKDRLTKTRMYQLLQEEGYEGSYSAFTYQVRIIEEELGINNK
Return: -1.51

Enquiry: Dear colleague, please send me the reported soluble fraction (log2) for HMGIAERKEKQKLEIRNAILEASRKLIVEEGFEKVTMRKIADLIEYSPTTVYLYFKDKNEILFHLHQ when you can.
Return: -1.37

Enquiry: Supply soluble fraction (log2) value. Item: HMPEVYSFEVNEGAAGKRLDIFLSGEIEGLTRSFIQKLISEGMATVNQEPPRASYRVKTRDLVELQIPDPE
Return: -0.488

Enquiry: Provide soluble fraction (log2) value for the following sequence: HMRARTQYWPFVEEKAAELKLPLHLVNVEPLFGEQKVVVHYTANGRIDFRELVHLLARRFHARIEMR
Return: 0.212

Enquiry: Hello, please tell me recorded soluble fraction (log2) for this one: HMNGTEAIRRYIDQFASKHATTPRMLKLNERKQLIQELKNNGLLEIKKAVETVAQHLGISRASAYLYVKE
Return: -0.303

Enquiry: Tell me measured soluble fraction (log2) for HMGELTNALATLSERERDVARLVAQGLDNRQIAAQLFLSEGTVRNRISDILDKLALTNRTQLAIAWLHAE please.
Return: -0.588

Enquiry: Look up and state reported soluble fraction (log2) for HMGSYANAWQLAEHAAKDMLGEVIYLLDGKEVHAGILETMSAESIKTASAENVDGKVVIRLVSK
Return: -0.0617

---

experiment: soluble fraction after stress (log2 fold change); higher = more stays soluble; pooled small domains, quantitative proteomics; details: stress: 50 degC
MEASURED_METRIC: soluble fraction (log2)
Give the figure by itself; no unit, no explanation.

// known answers, use as guide
{"SEQUENCE_STRING": "HMTLGEHILQYRTARGWSQEDLANALEVSRQSVSKWETDASTPELDKIVRLSEIFQVSIDELVTGKA", "soluble fraction (log2)": 0.108}
{"SEQUENCE_STRING": "HMGLLVPELTAEENVSLAAMIAGVPRQQARSISADLLNRLGLGQMLDRRMGEMSGGQAQRVAIAPIYGKF", "soluble fraction (log2)": -0.274}
{"SEQUENCE_STRING": "HMLPELQPGQTFSARIQQALPDNTYRALVAGKQLTLQLPEGAKAGDELELVVLDRSARVIIARQVD", "soluble fraction (log2)": -0.146}
{"SEQUENCE_STRING": "HMYHIYPVADNDTPKLSADRLEYSLSNALLTNKLLNIDEIKKIYNDVILDKDEDGTLELSFKS", "soluble fraction (log2)": 0.0308}
{"SEQUENCE_STRING": "HMNVYEVKFGDTLDEIIKTYLFDIPVKKSILRQAVILANPHAFRRNNPHWMYSDRQLKLPELQDIRRAIF", "soluble fraction (log2)": -0.276}
{"SEQUENCE_STRING": "HMKTTKDSVFEYIQKELMTNEEYKQGINTNVIAQHFGLQRSNISTILNELVKEDRLEKTNTRPVLYFLPQ", "soluble fraction (log2)": -0.0929}

Enquiry: Hello, please tell me recorded soluble fraction (log2) for this one: HMKGWPDREQAEKIWQQGIDYAIEHHTMSPQIVKEYIFHTQGIARSAALIAARLPDMDTEKAYVLGLLHD
Return: -0.214

Enquiry: State its soluble fraction (log2) for this sequence: HMKIDLTPQEEKIYSVLETELTLDEIIMKTSIKAGEALAILMDLELKKLVASVAGGKYRRKA
Return: 0.0271

---

experiment: soluble fraction after stress (log2 fold change); higher = more stays soluble; pooled small domains, quantitative proteomics; details: stress: 50 degC
MEASURED_METRIC: soluble fraction (log2)
Answer with a bare number; do not write a unit.

A selection of reference data follows.
{"SEQUENCE_STRING": "HMNENYNLSKREKEVLDLLVNGKSYKVIATELAISYETVHSHIKKIYHKLHVSSIGEAVSKTIKQKIL", "soluble fraction (log2)": -1.58}
{"SEQUENCE_STRING": "HMYNNDEIEKIQTMYNAIYQLNDIEKALIMLFLEDKSYKEIAEIMGISEGNARIKMMRTKDKLKNLISKN", "soluble fraction (log2)": -0.369}
{"SEQUENCE_STRING": "HMIYWGTMVDKIYEVLSLAGKPLSLMEIYQQVKVFFPNSTKSSIEASMRLDARHRFKYDVEGHVYSLVD", "soluble fraction (log2)": -1.3}
{"SEQUENCE_STRING": "HMDEILHHPSYRAIYEYMLDHKHVKTKDIAALLNVKEPRARQLLKEMIDKHFIIALGSNRNREYELL", "soluble fraction (log2)": -0.495}
{"SEQUENCE_STRING": "HMESSNLESQLKKGIVPNLNGLSAKDALFLLENSGFNVKLYGMGSVKKQSLEAGKKYNKGDKITLIL", "soluble fraction (log2)": 0.112}

Enquiry: Please look at this sequence and report its soluble fraction (log2): HMQEKIREVANRIRELRESLEVSPEEMADHLKVTIGTYIEYERGEADIPASVLFGIAHRLNVDMAVLL
Return: 0.142

Enquiry: Assign soluble fraction (log2) to the following record: HMDEPGAGYKWREDVLLRVMASHGIEESLRDDFVRHAVGFDNDDNMYLKKVEIENAAAAWVAN
Return: -0.377

Enquiry: Provide soluble fraction (log2) value for the following sequence: HMYINVQNARTIASFRSSLWRMHRDFTNQGYITADGLKTFLEMGKLYEDAGGNDIYHSKLLPEITALEIKY
Return: -0.76

Enquiry: Give the reported soluble fraction (log2) for this sequence. HMIGGEDEILKVVLEVLEEKPEAIEQYKNGRTNIVDFLVGQVMKKTRGQANPATTREFMIREIEK
Return: 0.0588

---

assay: soluble fraction after stress (log2 fold change); higher = more stays soluble; pooled small domains, quantitative proteomics; details: stress: 50 degC
# soluble fraction (log2) per entry
Answer using only a numeral; do not append any unit.

{"SEQUENCE_STRING": "HMHQLQLDSRSRLHMTGVIEVESFDEATIVLTTTRGTLIVRGENLHLQLLRLDGGEVLVDGTVDSLSYE", "soluble fraction (log2)": -1.5}
{"SEQUENCE_STRING": "HMGELGPGSRGQAVRALQERLMALGFPLARFGADGIFGRETTGALRAFQHVAGLSPTGLGDHETLKWLGII", "soluble fraction (log2)": -0.935}
{"SEQUENCE_STRING": "HMVYNGYYAKSFNGYVVILNGDEKTVYEYTQIPIHLLPEDIRSSVMSGYYLENETDLYNFLENYS", "soluble fraction (log2)": -0.822}
{"SEQUENCE_STRING": "HMKTKMTPELTTVIEAQIQKEWSPEQISGWLKKTHPVSVSHQRIYQHIQADRQQGGTLHQHLRQAK", "soluble fraction (log2)": 0.163}
{"SEQUENCE_STRING": "HMNRNEFMERLEYLLSDIPQEEKADAIAYYRDYLEEAGDDAGKAIQDFGSPERIAAMIRSELAG", "soluble fraction (log2)": -0.0703}

Enquiry: Find the measured soluble fraction (log2) of HMGPTPTSAQLTEAKRLRTKLDDLNPELAERLWSEHREPYTETQYQTLIEKLAAEVQSAEGEIGR and report it.
Return: 0.182

Enquiry: // Input: HMNSTSGIAGVGYWINQYRKKKGMSPVDKKSPLVRRVYDWVQEQYDEGRITIISDAELTRQTELAMEA . Output its soluble fraction (log2) only.
Return: -0.771

Enquiry: Could you please provide reported soluble fraction (log2) for HMQAPIFMNETDGKWYFREKYLNDNHEIAYRVHPEGYDQMEDALRNSVNALNEFAAEMKELRKQV ? Thanks!
Return: -0.0683

Enquiry: Give recorded soluble fraction (log2). HMKVTTGIDGLIGEEGVALSDFSGKGKIMVHGEIWNAEFSGEVKKGEVLLVEKANGMTLITRKKN
Return: 0.561

---

assay: soluble fraction after stress (log2 fold change); higher = more stays soluble; pooled small domains, quantitative proteomics; conditions: stress: 50 degC
Each record here notes measured soluble fraction (log2).
Field format: numeric only.

Please review the following examples before continuing.
{"SEQUENCE_STRING": "HMDKGMQTMIDNLHKNTGKTLEEWIALVNRANFAKHGEVISFLKEKHGLTHGYANLVAHRLK", "soluble fraction (log2)": 0.113}
{"SEQUENCE_STRING": "HMSEHLTLVVSDEDAGHRVDQFLVSRLAHMTRSQIQKLIKDGQVTIDTKLVRASTTVHTDNIVTIEFPPAV", "soluble fraction (log2)": -0.505}
{"SEQUENCE_STRING": "HMHQKELLNLSYKEAKRYILDDFERVFFTNLLRKTGGNVSRAAQLAQVHRKNLYVKLTELGIDPRQFG", "soluble fraction (log2)": -1.43}

Enquiry: Name the recorded soluble fraction (log2) of the item HMERLLVSKINGMITEAKVSVEDVVKVVASRGHYPEVKSIDEYPDDFLSRWVVPNFKKIVEMINANKEA in your answer.
Return: 0.187

Enquiry: Give the reported value of soluble fraction (log2) for this record: HMEPGEVQVDGLRFIAQPQERNDFEVALEQFRAGNFAAARKSFAAFINTYKQSGYLPSARFW
Return: -0.0516

Enquiry: Quickly give me recorded soluble fraction (log2) for HMLFGKKYLGKVPNDASGRISLWNDIVKHHQELQNIRAIENFTSDNVTVAQGDTKKAVVVTDYVT
Return: -0.0557

Enquiry: Given the sequence HMKSDEGEIKKIVEEIISKNASVVEDYKKGKEVALQFLVGQGMKATKGSANPELLKKIILENI , write its reported soluble fraction (log2).
Return: 0.506

Enquiry: Give the reported value of soluble fraction (log2) for this record: HMAPRSSAVYFYLSQVALKKNQPRKAEAMARRGLTVSQDANRRRALWQLILRSGQAQNNTRVIREAQQAL
Return: 0.19
